Molecular target: Extracellular calcium-sensing receptor (Homo sapiens, UniProt P41180)
Sequence (P41180 whole entry): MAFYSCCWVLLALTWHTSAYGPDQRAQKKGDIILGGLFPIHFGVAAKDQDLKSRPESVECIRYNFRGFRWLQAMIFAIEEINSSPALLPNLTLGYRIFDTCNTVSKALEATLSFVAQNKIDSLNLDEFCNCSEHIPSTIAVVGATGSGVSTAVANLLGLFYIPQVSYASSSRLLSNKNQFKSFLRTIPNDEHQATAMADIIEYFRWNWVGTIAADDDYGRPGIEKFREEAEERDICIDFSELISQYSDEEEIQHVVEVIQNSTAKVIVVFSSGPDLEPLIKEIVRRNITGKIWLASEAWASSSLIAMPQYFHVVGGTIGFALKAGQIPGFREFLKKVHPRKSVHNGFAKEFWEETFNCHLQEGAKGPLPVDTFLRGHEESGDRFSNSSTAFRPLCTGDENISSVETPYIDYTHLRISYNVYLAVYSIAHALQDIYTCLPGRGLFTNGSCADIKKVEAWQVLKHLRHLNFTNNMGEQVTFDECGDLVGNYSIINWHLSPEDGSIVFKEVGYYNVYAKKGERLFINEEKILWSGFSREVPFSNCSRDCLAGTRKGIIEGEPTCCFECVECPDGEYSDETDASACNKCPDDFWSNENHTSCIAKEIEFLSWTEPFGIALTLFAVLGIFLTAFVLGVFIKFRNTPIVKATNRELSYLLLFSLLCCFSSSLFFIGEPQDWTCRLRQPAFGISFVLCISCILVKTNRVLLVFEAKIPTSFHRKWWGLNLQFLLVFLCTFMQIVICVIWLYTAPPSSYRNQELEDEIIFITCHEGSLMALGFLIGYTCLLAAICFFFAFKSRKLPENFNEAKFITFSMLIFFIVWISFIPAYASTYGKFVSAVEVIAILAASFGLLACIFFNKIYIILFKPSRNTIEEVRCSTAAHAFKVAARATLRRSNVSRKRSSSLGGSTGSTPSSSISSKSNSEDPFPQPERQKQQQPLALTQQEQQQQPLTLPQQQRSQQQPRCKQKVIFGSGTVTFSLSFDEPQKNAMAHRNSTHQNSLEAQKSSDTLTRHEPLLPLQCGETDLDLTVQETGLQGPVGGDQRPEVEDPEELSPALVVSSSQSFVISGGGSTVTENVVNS
Assay: Positive allosteric modulation of calcium sensing receptor by cell based assay
# pEC50 per entry
pEC50 here: minus log base 10 of the concentration, concentration in moles per litre.

Recorded pEC50, per entry:
molecule	pEC50
CC(O)(c1ccc2ccccc2c1)c1nc2ccccc2s1 (configuration not stated)	6.20
Cc1cc(C(C)(O)c2nc3ccccc3s2)ccc1F (configuration not stated)	6.80
Cc1ccc(C(O)(c2nc3ccccc3s2)C2CC2)c(C)c1 (configuration not stated)	6.70
Cc1ccc(C(C)c2nc3ccccc3s2)c(C)c1 (configuration not stated)	5.60
CC(O)(c1ccc(Cl)c(Cl)c1)c1nc2ccccc2s1 (configuration not stated)	7.00

Measured pEC50 (Extracellular calcium-sensing receptor (Homo sapiens, UniProt P41180)), entry CC(O)(c1ccc(Cl)cc1)c1nc2ccccc2s1 (configuration not stated) : 6.40

Let me check: Cc1ccc(C(C)(O)c2nc3ccccc3s2)c(C)c1 (configuration not stated) , system Extracellular calcium-sensing receptor (Homo sapiens, UniProt P41180), measured pEC50 is 7.60

For the molecule "Cc1ccc([C@](C)(O)c2nc3ccccc3s2)c(C)c1" , the measured pEC50 on Extracellular calcium-sensing receptor (Homo sapiens, UniProt P41180) was 8.00

Noted pEC50 for Cc1cc(Cl)ccc1C(C)(O)c1nc2ccccc2s1 (configuration not stated) , tested on Extracellular calcium-sensing receptor (Homo sapiens, UniProt P41180): 7.50

Entry CC(O)(c1nc2ccccc2s1)c1ccc(Cl)cc1Cl (configuration not stated) : pEC50 on Extracellular calcium-sensing receptor (Homo sapiens, UniProt P41180) = 7.00

# pEC50 measured on Extracellular calcium-sensing receptor (Homo sapiens, UniProt P41180) for item Cc1cc(C)c2c(c1)C(O)(c1nc3ccccc3s1)CCC2 (configuration not stated) = 6.50

// pEC50 (Extracellular calcium-sensing receptor (Homo sapiens, UniProt P41180)) for COc1ccccc1C(C)(O)c1nc2ccccc2s1 (configuration not stated) = 5.40
